# experimental-details: self-splicing fitness, log relative to wild type (ln ratio); higher = more splicing; Tetrahymena group I intron in knt gene, E. coli kanamycin selection, DiMSum; sequences stand for … in CUCUCU…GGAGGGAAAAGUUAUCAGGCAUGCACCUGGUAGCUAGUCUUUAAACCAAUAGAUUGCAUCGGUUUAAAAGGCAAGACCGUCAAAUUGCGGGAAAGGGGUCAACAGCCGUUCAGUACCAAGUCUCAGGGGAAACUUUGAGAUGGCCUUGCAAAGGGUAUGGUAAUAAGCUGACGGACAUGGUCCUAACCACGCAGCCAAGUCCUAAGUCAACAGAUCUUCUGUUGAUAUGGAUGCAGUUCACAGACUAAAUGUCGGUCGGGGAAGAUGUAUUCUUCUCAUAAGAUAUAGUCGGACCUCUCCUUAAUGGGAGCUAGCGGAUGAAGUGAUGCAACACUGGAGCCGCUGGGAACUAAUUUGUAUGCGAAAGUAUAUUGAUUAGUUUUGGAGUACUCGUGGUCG;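 further: selection with 25 µg/mL kanamycin versus none on LB agar overnight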
# setup-conditions: 37 °C
# self-splicing fitness (ln) values compiled below

1) AUCGAGCAAUAUUACGCGUA : -1.01

Fill in self-splicing fitness (ln) for record UGACAGCAAUAUUACGGGUA -0.216

Fill in self-splicing fitness (ln) for record CCAAAGCAAUAUUACGUUGG -3.32

Fill in self-splicing fitness (ln) for record CGCCAGCAAUAUUACGCAGU -2.18

* * *

# experimental-details: self-splicing fitness, log relative to wild type (ln ratio); higher = more splicing; Tetrahymena group I intron in knt gene, E. coli kanamycin selection, DiMSum; sequences stand for … in CUCUCU…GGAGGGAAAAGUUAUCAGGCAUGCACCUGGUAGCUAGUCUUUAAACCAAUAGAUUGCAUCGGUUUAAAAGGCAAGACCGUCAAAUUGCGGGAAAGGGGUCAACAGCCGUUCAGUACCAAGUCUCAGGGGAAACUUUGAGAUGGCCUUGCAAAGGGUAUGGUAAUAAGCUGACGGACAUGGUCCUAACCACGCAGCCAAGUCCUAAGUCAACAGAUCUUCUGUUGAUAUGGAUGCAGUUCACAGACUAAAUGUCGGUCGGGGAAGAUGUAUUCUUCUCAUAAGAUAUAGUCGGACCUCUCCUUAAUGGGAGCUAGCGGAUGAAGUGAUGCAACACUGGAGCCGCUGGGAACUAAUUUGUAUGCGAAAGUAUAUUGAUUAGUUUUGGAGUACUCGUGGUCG
# setup-conditions: 30 °C
Label Y when self-splicing fitness (ln) is at or above -3; anything below gets N.

Assess whether reported self-splicing fitness (ln) for GACCAGCAAUAUUACGGCAU sits at -3 or higher. Y

Assess whether reported self-splicing fitness (ln) for CUCGAGCAAUAUUACGUGUG sits at -3 or higher. Y

Assess whether reported self-splicing fitness (ln) for AAUGAGCAAUAUUACGGUCA sits at -3 or higher. Y

Assess whether reported self-splicing fitness (ln) for GUCAAGCAAUAUUACGUCCA sits at -3 or higher. Y

Assess whether reported self-splicing fitness (ln) for AGCAAGCAAUAUUACGAAAG sits at -3 or higher. Y

Assess whether reported self-splicing fitness (ln) for CAUAAGCAAUAUUACGUUGA sits at -3 or higher. N

Assess whether reported self-splicing fitness (ln) for CGUGAGCAAUAUUACGUUAU sits at -3 or higher. N

Assess whether reported self-splicing fitness (ln) for AUAAAGCAAUAUUACGACUU sits at -3 or higher. Y

Reference for the values: the supplement of paper PMC7877785
